tested on: Wolbachia pipientis; assay: Anti-Wolbachia Cell-Based Screen; format: functional; set-up: scale not given: in the data most compounds retested in dose-response had high values; conditions: 5 µM
The campaign covered roughly 48,000 compounds. About 13,000 (27%) showed an effect of 50% or more. The list shows a part of the results.
Consider the following molecules; for each one, report its Percent Effect.
Mention the unit after the number when you answer.

# query: Percent Effect of entry O=C(CCC1CCCO1)N1CCc2nc(-c3cnccn3)nc(O)c2C1 (stereo unspecified)
116.1%

# query: Percent Effect of entry O=C(Cc1csc(-c2ccco2)n1)N1CCN(c2cnccn2)CC1
16.12%

# query: Percent Effect of entry Cc1ncccc1NC(=O)c1nc2c(n1C)CCN(C(=O)C1CC1)C2
102%

# query: Percent Effect of entry O=C(c1cnc(-c2ccccc2)nc1)N1CCOC2(CCCC2)C1
-7.447%

# query: Percent Effect of entry COCC(=O)N1CCc2nc(C(=O)Nc3cccnc3)sc2CC1
1.921%

# query: Percent Effect of entry Cc1ccncc1C(=O)N1CC[C@@]2(O)CCN(C3CCCCC3)C[C@H]2C1
-0.1912%

# query: Percent Effect of entry O=S(=O)(c1ccccc1)N1CCN(Cc2ccc(F)cc2Br)CC1
23.46%

# query: Percent Effect of entry CN(C)C(=O)NC1COC2(CCN(C(=O)c3ccc(Cl)cc3)CC2)C1 (stereo unspecified)
-7.709%

# query: Percent Effect of entry O=C(c1ccoc1)N1CCC2(CC1)C(=O)Nc1ccccc12
5.078%

# query: Percent Effect of entry CO[C@H]1CNC[C@@H]1NC(=O)c1cc(C)nc2c(C)cc(C)cc12
0.2692%

# query: Percent Effect of entry O=C(c1ccc(Cl)cc1)N1CCC2(CC1)C(=O)Nc1ccccc12
0.2295%
